These entries and their values trace back to patent US6608086B2.

# target-of-assay: α2C receptor (Homo sapiens)
# Construct: host or cells: LM(tk-) cells, line L-α2C
# Sequence (P18825 1-462): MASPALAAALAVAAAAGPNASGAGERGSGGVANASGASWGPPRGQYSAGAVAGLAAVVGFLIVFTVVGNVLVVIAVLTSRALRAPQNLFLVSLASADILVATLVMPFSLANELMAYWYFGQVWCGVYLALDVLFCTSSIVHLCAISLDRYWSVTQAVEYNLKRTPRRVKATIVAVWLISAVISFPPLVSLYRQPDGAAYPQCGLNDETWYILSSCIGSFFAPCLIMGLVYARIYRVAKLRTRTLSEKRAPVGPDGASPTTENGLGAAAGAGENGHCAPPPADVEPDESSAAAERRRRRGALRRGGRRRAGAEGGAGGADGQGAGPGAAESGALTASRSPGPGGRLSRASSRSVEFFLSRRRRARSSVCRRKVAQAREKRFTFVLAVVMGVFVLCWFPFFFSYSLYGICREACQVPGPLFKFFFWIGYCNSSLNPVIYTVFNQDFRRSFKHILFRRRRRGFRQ
# protocol-notes: Competition binding, [3H]rauwolscine, human α2C receptor
# reported-conditions: PKi alpha-2 2c
pKi: −log10 of the molar value.
Documented pKi across a set of molecules

molecule	pKi
CCOC(=O)C1(c2ccccc2)CCN(CCCNC(=O)C2=C(COCCN)NC(CC)=C(C(=O)OC)C2c2ccc([N+](=O)[O-])cc2)CC1 (stereo not shown) [Example 197]	6.29
COC(=O)C1=C(C)NC(CCCCN)=C(C(=O)NCCCN2CCC(c3ccccc3)(c3ccccc3)CC2)C1c1ccc([N+](=O)[O-])cc1 (stereo not shown) [Example 170]	5.31
CCC1=C(C(=O)OC)C(c2ccc([N+](=O)[O-])cc2)C(C(=O)NCCCN2CCC(C(=O)OC)(c3ccccc3)CC2)=C(COCCN)N1 (stereo not shown) [Example 235]	5.99
CCC1=C(C(=O)NC)C(c2ccc([N+](=O)[O-])cc2)C(C(=O)NCCCN2CCC(C(=O)OC)(c3ccccc3)CC2)=C(CC)N1 (stereo not shown) [Example 179]	5.84
CCNC(=O)C1=C(CC)NC(COCCN)=C(C(=O)NCCCN2CCC(C(=O)OC)(c3ccccc3)CC2)C1c1ccc([N+](=O)[O-])cc1 (stereo not shown) [Example 233]	5.78
COC(=O)C1(c2ccccc2)CCN(CCCNC(=O)C2=C(COCCCN)NC(C)=C(C(C)=O)C2c2ccc([N+](=O)[O-])cc2)CC1 (stereo not shown) [Example 241]	6.40
CCC1=C(C(=O)NC)C(c2ccc([N+](=O)[O-])cc2)C(C(=O)NCCCN2CCC(c3ccccc3)(c3ccccc3)CC2)=C(COCCN)N1 (stereo not shown) [Example 225]	6.38
CC1=C(C(N)=O)C(c2ccc([N+](=O)[O-])cc2)C(C(=O)NCCCN2CCC(C(=O)O)(c3ccccc3)CC2)=C(C)N1 (stereo not shown) [Example 210]	4.66
CCNC(=O)C1=C(CC)NC(CC)=C(C(=O)NCCCN2CCC(C(=O)OC)(c3ccccc3)CC2)C1c1ccc([N+](=O)[O-])cc1 (stereo not shown) [Example 180]	5.24
CCOC(=O)C1(c2ccccc2)CCN(CCCNC(=O)C2=C(COC)NC(CC)=C(C(=O)O)C2c2ccc([N+](=O)[O-])cc2)CC1 (stereo not shown) [Example 240]	4.93
COC(=O)C1(c2ccccc2)CCN(CCCNC(=O)C2=C(CCCCN)NC(C)=C(C(N)=O)C2c2ccc([N+](=O)[O-])cc2)CC1 (stereo not shown) [Example 177]	6.08
CCNC(=O)C1=C(CC)NC(CC)=C(C(=O)NCCCN2CCC(C(=O)OCC)(c3ccccc3)CC2)C1c1ccc([N+](=O)[O-])cc1 (stereo not shown) [Example 182]	5.94
CCC1=C(C(N)=O)C(c2ccc([N+](=O)[O-])cc2)C(C(=O)NCCCN2CCC(C(=O)OC)(c3ccccc3)CC2)=C(CC)N1 (stereo not shown) [Example 200]	5.79
